target: Paired box protein Pax-6 (Homo sapiens) (UniProt P26367); experiment: ATG_Pax6_CIS: Attagene CIS-FACTORIAL HepG2 Assay for human Paired Box 6 (PAX6) (AID 2282956); conditions: HepG2 CIS-FACTORIAL PAX6 reporter transcription, RNA readout; actives raise or lower the signal
Sequence (P26367 whole entry, looked up): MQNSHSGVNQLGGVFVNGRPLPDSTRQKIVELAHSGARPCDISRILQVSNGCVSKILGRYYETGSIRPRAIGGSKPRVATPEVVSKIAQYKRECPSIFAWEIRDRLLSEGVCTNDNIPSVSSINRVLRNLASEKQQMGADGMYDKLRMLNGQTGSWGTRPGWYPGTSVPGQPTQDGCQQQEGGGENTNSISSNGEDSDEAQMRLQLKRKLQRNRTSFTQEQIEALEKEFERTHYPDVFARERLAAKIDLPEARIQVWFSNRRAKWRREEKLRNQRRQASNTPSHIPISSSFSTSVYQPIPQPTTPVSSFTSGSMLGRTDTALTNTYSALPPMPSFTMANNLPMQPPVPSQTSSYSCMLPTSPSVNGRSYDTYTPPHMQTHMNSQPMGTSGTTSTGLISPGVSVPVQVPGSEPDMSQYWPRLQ
The source made the active and inactive calls. The calls were made as follows: active = hit-call score of the fitted dose curve at least 0.9, where 1 is the maximum; inactive = score below 0.9.
Parameter call: string, one of active, inactive

// known answers, use as guide
# Compound, Class name
rows = [
    ("O=C1OC(=O)C2C3C=CC(C3)C12 (stereo unspecified)", "inactive"),
    ("CCCCCCCCCCCCc1ccccc1", "inactive"),
]

Q: What was the test verdict on `O=C(NS(=O)(=O)/C=C/c1ccccc1)c1ccc(F)cc1Cl` ?
A: inactive

Q: What was the test verdict on `CC(=O)OCCC(C)C` ?
A: inactive

Q: What was the test verdict on `CCn1nc(Cc2ccccc2)cc1C1CCN(C[C@H]2C[C@H](N(C)[C@@H](C(=O)O)C(C)C)C[C@@H]2c2cccc(F)c2)CC1` ?
A: inactive

Q: What was the test verdict on `COCCOc1cc2cc(C(=O)NC3CCN(C(C)C)CC3)n(CC(=O)Nc3ccc(Cl)cn3)c2cn1` ?
A: active

---

read-out: Thrombomodulin, THBD (gene 7056); test: BSK_CASM3C_Thrombomodulin: BioMAP Diversity Plus: CASM3C Assay for Thrombomodulin Biomarker Activity (AID 2283051); conditions: primary human coronary artery smooth muscle cells; actives raise or lower the signal;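 also: thrombomodulin protein level measured by ELISA 24 h after dosing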
The source made the active and inactive calls. The calls were made as follows: active = hit-call score of the fitted dose curve at least 0.9, where 1 is the maximum; inactive = score below 0.9.
Measured parameter: AC50

# Compound, AC50
rows = [
    ("CCc1cc(SCc2sc(-c3ccc(C(F)(F)F)cc3)nc2CN2CCN(c3ccc(OC)cc3)CC2)ccc1OCC(=O)O", "35.1 µM (active)"),
    ("COC(=O)c1ccccc1O", "inactive"),
    ("COc1ccc2sc(C(=O)Nc3nnn[nH]3)c(OC(C)C)c2c1", "8.49 µM (active)"),
    ("CC(=O)OC[C@H]1O[C@@](COC(C)=O)(O[C@H]2O[C@H](COC(C)=O)[C@@H](OC(C)=O)[C@H](OC(C)=O)[C@H]2OC(C)=O)[C@@H](OC(C)=O)[C@@H]1OC(C)=O", "inactive"),
    ("O=c1n(CC2CO2)c(=O)n(CC2CO2)c(=O)n1CC1CO1 (centres undefined)", "inactive"),
]

Q: Value lookup for AC50; key = `CCOc1cccc(-n2cc(C(=O)N3CCN(c4cc(C(=O)O)c5ccccc5c4)CC3)nc2-c2ccc(C)cc2)c1`
A: inactive

Q: Value lookup for AC50; key = `CC(C)CCCCCCOC(=O)c1ccc(C(=O)OCCCCCCC(C)C)c(C(=O)OCCCCCCC(C)C)c1`
A: inactive

Q: Value lookup for AC50; key = COc1ccc(-n2nc(C(F)F)cc2-c2ccc(S(C)=O)cc2)cc1 (centres undefined)
A: inactive

Q: Value lookup for AC50; key = `CCNc1ccccc1`
A: inactive

---

Biological target: human Esterase Plasma (ES), BCHE (gene 590)
Assay: NVS_ENZ_hES: NovaScreen (NVS) Enzymatic Assay for human Esterase Plasma (ES) (AID 2283157)
Procedure: NVS_ENZ_hES is a biochemical, single-readout assay that uses extracted gene-proteins from Human plasma in a cell-free assay. Measurements were taken 0.25 hour after chemical dosing in a 96-well plate.NVS_ENZ_hES is one of one assay component(s) measured or calculated from the NVS_ENZ_hES assay. […] This assay endpoint, NVS_ENZ_hES, was analyzed in the positive analysis fitting direction relative to DMSO as the negative control and baseline of activity. […]
Inconclusive results are not listed. The source made the active and inactive calls. The calls were made as follows: active = hit-call score of the fitted dose curve at least 0.9, where 1 is the maximum; inconclusive = response in the unintended direction; inactive = score below 0.9.
Measured parameter: AC50

Worked cases, answers included:
# Structure as smiles, Measured parameter, Endpoint result
data = [
    ("Nc1ccc(Nc2ccccc2)cc1", "AC50", "29.8 µM (active)"),
    ("CC[C@H]1CC[C@H](NCc2cc3c(cc2OC)[C@H]2C[C@H]2C(=O)N3C)[C@H](c2ccccc2)N1", "AC50", "17.3 µM (active)"),
    ("COC(=O)c1c(Cl)c(Cl)c(C(=O)OC)c(Cl)c1Cl", "AC50", "inactive"),
    ("CCC(C)(C)C(=O)O[C@H]1C[C@@H](C)C=C2C=C[C@H](C)[C@H](CC[C@@H]3C[C@@H](O)CC(=O)O3)[C@H]21", "AC50", "inactive"),
]

Now turn to the next compound.
Q: What value of AC50 on human Esterase Plasma (ES), BCHE (gene 590) does `Cc1[nH]cnc1C[C@H]1CCc2c(C)c3ccccc3n2C1=O` have?
A: 14.4 µM (active)

---

read-out: CD69, CD69 (gene 969); assay: BSK_SAg_CD69: BioMAP Diversity Plus: SAg Assay for CD69 Biomarker Activity (AID 2283089); conditions: primary human HUVEC with PBMC; actives raise or lower the signal;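 as to AC50: cell surface CD69 protein quantified by ELISA with fluorescence detection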
Activity calls are given as the source filed them. How the source made its calls: active means hit-call score of the fitted dose curve at least 0.9, where 1 is the maximum; inactive means score below 0.9.
Measured parameter: AC50

Worked cases, answers included:
# Compound, Measured parameter, Endpoint result
rows = [
    ("O=C(CCCCCCCCc1cccnc1)N1CCC(C=C(c2ccccc2)c2ccccc2)CC1", "AC50", "8.49 µM (active)"),
    ("Cc1ccc(C)c(O)c1", "AC50", "inactive"),
    ("CCOCCOCCOCCO", "AC50", "inactive"),
    ("COCCOc1cc2cc(C(=O)NC3CCN(C(C)C)CC3)n(CC(=O)Nc3ccc(Cl)cn3)c2cn1", "AC50", "inactive"),
]

Q: Value lookup for AC50; key = `O=C(OC[C@H]1O[C@@H](OC(=O)c2cc(O)c(O)c(OC(=O)c3cc(O)c(O)c(O)c3)c2)[C@H](OC(=O)c2cc(O)c(O)c(OC(=O)c3cc(O)c(O)c(O)c3)c2)[C@@H](OC(=O)c2cc(O)c(O)c(OC(=O)c3cc(O)c(O)c(O)c3)c2)[C@@H]1OC(=O)c1cc(O)c(O)c(OC(=O)c2cc(O)c(O)c(O)c2)c1)c1cc(O)c(O)c(OC(=O)c2cc(O)c(O)c(O)c2)c1`
A: 6.1 µM (active)

Q: Value lookup for AC50; key = `O=C(O)c1cccc(Oc2ccccc2)c1`
A: inactive

Q: Value lookup for AC50; key = CC(C)=CCCC(C)CCO (configuration not stated)
A: inactive

---

read-out: TIMP metallopeptidase inhibitor 1 (TIMP1), TIMP1 (gene 7076); assay: BSK_hDFCGF_TIMP1: BioMAP Diversity Plus: hDFCGF Assay for TIMP metallopeptidase inhibitor 1 (TIMP1) Biomarker Activity (AID 2283062); conditions: primary human foreskin fibroblasts; actives raise or lower the signal
The source made the active and inactive calls. The calls were made as follows: active = hit-call score of the fitted dose curve at least 0.9, where 1 is the maximum; inactive = score below 0.9.
Parameter call: string, one of True = active, False = inactive

// known answers, use as guide
# Compound, Class name
data = [
    ("CC1(C)C(=O)N(Br)C(=O)N1Br", "False"),
    ("CCCCC(CC)COC(=O)c1ccc(C(=O)OCC(CC)CCCC)cc1 (centres undefined)", "False"),
]

Q: What was the test verdict on `C[C@](N)(Cc1ccc(O)c(O)c1)C(=O)O` ?
A: False

Q: What was the test verdict on `CC(C)=CCC/C(C)=C\CO` ?
A: False

Q: What was the test verdict on `COc1cccc(-c2ccc(/C=C\CN3CCCCCC3)cc2Cl)c1` ?
A: True

Q: What was the test verdict on `COC(=O)CC(=O)OC` ?
A: False

Q: What was the test verdict on `O=P(OC(CCl)CCl)(OC(CCl)CCl)OC(CCl)CCl` ?
A: False

---

target: Peroxisome proliferator-activated receptor gamma (Homo sapiens) (UniProt P37231); assay: ATG_PPARg_TRANS: Attagene TRANS-FACTORIAL HepG2 Assay for human Peroxisome Proliferator-activated Receptor-gamma (PPARg) (AID 2283007)
Sequence (P37231 whole entry, looked up): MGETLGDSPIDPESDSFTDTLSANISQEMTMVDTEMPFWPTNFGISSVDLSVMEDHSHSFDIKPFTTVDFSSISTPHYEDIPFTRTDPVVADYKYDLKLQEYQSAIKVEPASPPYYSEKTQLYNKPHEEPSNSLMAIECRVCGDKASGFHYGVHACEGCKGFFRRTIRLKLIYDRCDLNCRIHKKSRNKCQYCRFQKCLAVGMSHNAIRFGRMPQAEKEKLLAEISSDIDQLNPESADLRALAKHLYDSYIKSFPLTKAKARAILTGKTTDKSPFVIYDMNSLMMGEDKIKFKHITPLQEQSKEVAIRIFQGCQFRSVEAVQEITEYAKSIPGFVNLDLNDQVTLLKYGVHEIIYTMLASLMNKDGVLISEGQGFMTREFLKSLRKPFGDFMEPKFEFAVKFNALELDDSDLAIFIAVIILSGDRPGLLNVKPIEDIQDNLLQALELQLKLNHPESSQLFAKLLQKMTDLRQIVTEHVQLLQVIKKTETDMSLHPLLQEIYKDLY
Inconclusive results are not listed. Activity calls are given as the source filed them. Rule for the calls: active = hit-call score of the fitted dose curve at least 0.9, where 1 is the maximum; inconclusive = response in the unintended direction; inactive = score below 0.9.
Parameter call: string, one of active, inactive

Q: What was the test verdict on `CC(C)=CCCC(C)=CC=O` ?
A: active

Q: What was the test verdict on `CC(C)=CCC/C(C)=C\CO` ?
A: active

---

read-out: Cytochrome P450 2C19 (Homo sapiens) (UniProt P33261); assay: LTEA_HepaRG_CYP2C19: Life Technologies and Expression Analysis (LTEA) Assay for CYP2C19 using HepaRG (AID 2283482); details: mRNA level, 48 h; actives raise or lower the signal
Sequence (P33261 whole entry, looked up): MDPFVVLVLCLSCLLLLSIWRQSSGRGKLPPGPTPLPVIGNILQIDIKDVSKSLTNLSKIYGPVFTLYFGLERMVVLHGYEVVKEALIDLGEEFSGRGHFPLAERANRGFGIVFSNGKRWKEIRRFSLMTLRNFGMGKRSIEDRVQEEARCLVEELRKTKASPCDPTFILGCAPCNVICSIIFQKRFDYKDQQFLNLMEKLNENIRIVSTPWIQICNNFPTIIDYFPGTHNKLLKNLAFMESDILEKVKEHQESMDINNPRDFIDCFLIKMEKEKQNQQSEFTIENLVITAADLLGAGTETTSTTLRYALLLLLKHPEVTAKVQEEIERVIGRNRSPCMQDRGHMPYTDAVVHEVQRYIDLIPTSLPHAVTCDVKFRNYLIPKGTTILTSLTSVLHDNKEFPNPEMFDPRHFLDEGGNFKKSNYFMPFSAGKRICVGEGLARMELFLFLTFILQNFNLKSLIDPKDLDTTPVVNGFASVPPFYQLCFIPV
Calls of active or inactive are those of the source. The calls were made as follows: active = hit-call score of the fitted dose curve at least 0.9, where 1 is the maximum; inactive = score below 0.9.
Parameter call: string, one of active, inactive

# Molecule, Class name
measured = [
    ("Nc1cccc(N)c1", "inactive"),
    ("CC(=O)OC[C@H]1O[C@@](COC(C)=O)(O[C@H]2O[C@H](COC(C)=O)[C@@H](OC(C)=O)[C@H](OC(C)=O)[C@H]2OC(C)=O)[C@@H](OC(C)=O)[C@@H]1OC(C)=O", "inactive"),
    ("On1ccccc1=S", "inactive"),
    ("CC/C(=C\\C(=N/O)C(N)=O)C(C)[N+](=O)[O-] (stereo not given)", "inactive"),
    ("COc1cccc(-c2ccc(/C=C\\CN3CCCCCC3)cc2Cl)c1", "active"),
    ("COC(=O)c1c(Cl)c(Cl)c(C(=O)OC)c(Cl)c1Cl", "inactive"),
]

Q: What was the test verdict on `CCc1cc(SCc2sc(-c3ccc(C(F)(F)F)cc3)nc2CN2CCN(c3ccc(OC)cc3)CC2)ccc1OCC(=O)O` ?
A: active

Q: What was the test verdict on CCOC(=O)c1ccc(C2CCC(NC[C@H](O)COc3ccc(O)c(NS(C)(=O)=O)c3)CC2)cc1 (stereo not given in full) ?
A: inactive

Q: What was the test verdict on `Clc1nc(Cl)c(Cl)c(Cl)c1Cl` ?
A: inactive

Q: What was the test verdict on O=c1n(CC2CO2)c(=O)n(CC2CO2)c(=O)n1CC1CO1 (stereo not given) ?
A: inactive
